test system: Rat fibroblasts (CREF); test: Peg3 promoter luciferase inhibitors, potency, dose response, cell-based, HeLa, CREF/GAPDH counter-screen panel (AID 624167); conditions: CREF/GAPDH counter-screens, mean of runs
Active and inactive are the calls of the source.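 The calls were made as follows: active = mean IC50 for reducing PEG3 promoter reporter signal at or below a set limit, with IC50 above the limit in both counter screens; inactive = the rest, including counter screen hits.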
Labels: active, inactive

Compound: Brc1ccc(N=Nc2ccc3ccccc3n2)cc1
System Tested: Rat fibroblasts (CREF)
Assigned Category: active
//
Compound: O=C1CCCCC1Sc1nnc(-c2ccc3c(c2)OCO3)o1 (stereo not drawn)
System Tested: Rat fibroblasts (CREF)
Assigned Category: active
//
Compound: CCCC(=O)NC(c1ccc(C(C)C)cc1)c1ccc2cccnc2c1O (stereo not drawn)
System Tested: Rat fibroblasts (CREF)
Assigned Category: inactive
//
Compound: Cc1ccc2nc(C)cc(Nc3ccc([N+](=O)[O-])cc3)c2c1
System Tested: Rat fibroblasts (CREF)
Assigned Category: active
//
Compound: CN1OC[C@@H]2CN(S(=O)(=O)c3cccc(C(F)(F)F)c3)[C@H](c3ccc(-c4cc5ccccc5o4)cc3)C[C@@H]21
System Tested: Rat fibroblasts (CREF)
Assigned Category: inactive
//
Compound: Cc1ccc2nc(-c3ccccc3)cn2c1
System Tested: Rat fibroblasts (CREF)
Assigned Category: active
//
Compound: O=[N+]([O-])c1ccc(S(=O)(=O)c2ccccc2)nc1
System Tested: Rat fibroblasts (CREF)
Assigned Category: inactive
//
Compound: Cc1cc(NC(c2cccnc2)c2ccc3cccnc3c2O)no1 (stereo not drawn)
System Tested: Rat fibroblasts (CREF)
Assigned Category: active
//
Compound: Cc1ccc(-n2[nH]c(=O)c(-c3ccccn3)c2C)cc1
System Tested: Rat fibroblasts (CREF)
Assigned Category: active
//
Compound: Cc1ccc2oc(/N=C(\N)NC(=O)C(C)(C)C)nc2c1
System Tested: Rat fibroblasts (CREF)
Assigned Category: active
//
Compound: Nc1ccc(-c2nc3ccc(C(=O)O)cc3s2)cc1
System Tested: Rat fibroblasts (CREF)
Assigned Category: active
//
Compound: COC1=CC(=O)c2c(ccc3ncnc(N)c23)C1=O
System Tested: Rat fibroblasts (CREF)
Assigned Category: active
//
Compound: COc1cccc(-c2sc3ccccc3c2-c2ccc(OCCN(C)C)cc2)c1
System Tested: Rat fibroblasts (CREF)
Assigned Category: active
//
Compound: Cc1cc(/C=N/Nc2ncnc(N)c2[N+](=O)[O-])c(C)n1-c1ccccc1
System Tested: Rat fibroblasts (CREF)
Assigned Category: active
//
Compound: Cc1ccc(OCC(=O)c2cc(C)n(-c3ccccc3)c2C)c([N+](=O)[O-])n1
System Tested: Rat fibroblasts (CREF)
Assigned Category: inactive
//
Compound: CCCCCN1C=CC(=C2C(=O)c3ccccc3C2=O)C=C1
System Tested: Rat fibroblasts (CREF)
Assigned Category: active
//
Compound: C=CCn1c(C)cc(C2=NNC(=NCC)SC2)c1C
System Tested: Rat fibroblasts (CREF)
Assigned Category: active
//
Compound: Cc1ccccc1OCC(O)CNC1CCC(NCC(O)COc2ccccc2C)CC1 (stereo not drawn)
System Tested: Rat fibroblasts (CREF)
Assigned Category: active
//
Compound: CCN(CCO)c1ccc(N=Nc2cc(C)[nH]n2)cc1
System Tested: Rat fibroblasts (CREF)
Assigned Category: active
//
Compound: Cc1ccc(C(=O)CN2C(=O)c3ccccc3S2(=O)=O)cc1
System Tested: Rat fibroblasts (CREF)
Assigned Category: active
//
Compound: C=CCn1c(COc2ccccc2)nnc1SC(C)C(=O)N/N=C/c1cc(Cl)ccc1O (stereo not drawn)
System Tested: Rat fibroblasts (CREF)
Assigned Category: inactive
//
Compound: COc1ccc(Nc2ncnc3ccc(Br)cc23)c(OC)c1
System Tested: Rat fibroblasts (CREF)
Assigned Category: inactive
//
Compound: Cc1ccc(C(=O)O/N=C(\N)c2ccccn2)cc1
System Tested: Rat fibroblasts (CREF)
Assigned Category: active

---

test system: Rat fibroblasts (CREF); test: Peg3 promoter luciferase inhibitors, potency, dose response, cell-based, HeLa, CREF/GAPDH counter-screen panel (AID 624167); conditions: CREF/GAPDH counter-screens, run 1, dose range 1, individual replicate IC50 per panel

Compound: CCOc1ccc(NC(=O)Nc2cccc(C(=O)O)c2)cc1
Qualifying Sign: =
IC50 [µM]: 3.07

Compound: O=[N+]([O-])c1ccc(-c2ccc(/C=N/Nc3nc(NCc4ccccc4)nc(N4CCOCC4)n3)o2)cc1
Qualifying Sign: =
IC50 [µM]: 9.4

Compound: Cc1cc(NC(c2ccc(Cl)cc2)c2ccc3cccnc3c2O)no1 (centres undefined)
Qualifying Sign: >
IC50 [µM]: 100

Compound: NC1=C(Br)C(=O)c2ncccc2C1=O
Qualifying Sign: =
IC50 [µM]: 2.19

Compound: C=CCn1c(COc2ccccc2)nnc1SC(C)C(=O)N/N=C/c1cc(Cl)ccc1O (centres undefined)
Qualifying Sign: >
IC50 [µM]: 100

Compound: CCCC(=O)NC(c1ccccc1)c1ccc2cccnc2c1O (centres undefined)
Qualifying Sign: =
IC50 [µM]: 0.587

Compound: O=C(O)c1ccc(N/N=C/c2ccc(OC(=O)c3cccc(Cl)c3)cc2)cc1
Qualifying Sign: >
IC50 [µM]: 100

Compound: COc1ccc(C(=O)/C=C/Nc2ccccn2)cc1
Qualifying Sign: =
IC50 [µM]: 3.45

Compound: O=C(N/N=C/c1cc([N+](=O)[O-])ccc1O)c1ccc(COc2ccc3c(c2)CCC3)o1
Qualifying Sign: >
IC50 [µM]: 100

Compound: Cc1ccccc1CNC(=O)C1CCCN(c2nnc(C)c3c(C)n(-c4ccccc4)nc23)C1 (centres undefined)
Qualifying Sign: =
IC50 [µM]: 23.9

Compound: CN[C@H]1C[C@H]2c3[nH]c4ccc(-c5ccc(OC)cc5)cc4c3CCN2C(=O)[C@H]1[C@H](C)O
Qualifying Sign: =
IC50 [µM]: 16.9

Compound: CCCCCN1C=CC(=C2C(=O)c3ccccc3C2=O)C=C1
Qualifying Sign: =
IC50 [µM]: 0.371

Compound: COC(=O)C1C=CC(OC2OC(COC(C)=O)C(OC(C)=O)C(OC(C)=O)C2OC(C)=O)n2c(=O)n(-c3ccccc3)c(=O)n21 (centres undefined)
Qualifying Sign: =
IC50 [µM]: 6.83

Compound: Cc1cc(C2=NNC(=NC3CC3)SC2)c(C)n1-c1ccccc1F
Qualifying Sign: =
IC50 [µM]: 2.72

Compound: O=C(Nc1ccc(Cc2ccncc2)cc1)c1ccc([N+](=O)[O-])o1
Qualifying Sign: =
IC50 [µM]: 14

Compound: CCC(=O)NC(c1cccs1)c1cc(Cl)c2cccnc2c1O (centres undefined)
Qualifying Sign: <
IC50 [µM]: 100

Compound: Cc1cc(Br)ccc1NC(=O)CNC(=O)Cn1ncc(Cl)c(Cl)c1=O
Qualifying Sign: =
IC50 [µM]: 8.5

Compound: C=C1CC2(OC1=O)c1ccccc1CCc1ccccc12
Qualifying Sign: =
IC50 [µM]: 7.58

Compound: Cc1cc(C(=O)COC(=O)c2ccccc2O)c(C)n1CC1CCCO1 (centres undefined)
Qualifying Sign: =
IC50 [µM]: 3.34

Compound: CCCC(=O)NC(c1ccc(N(C)C)cc1)c1ccc2cccnc2c1O (centres undefined)
Qualifying Sign: >
IC50 [µM]: 100

Compound: CCCCCCCNC(=O)C1(CC2CC(c3cccc(Br)c3)=NO2)CCNCC1 (centres undefined)
Qualifying Sign: =
IC50 [µM]: 16.1

Compound: CN(C)c1ccc(Nc2nc(N)c3ccccc3n2)cc1
Qualifying Sign: =
IC50 [µM]: 0.869

Compound: CCOC(=O)Cc1csc(NC(=S)NC(=O)c2ccc(Cl)cc2)n1
Qualifying Sign: =
IC50 [µM]: 4.16

Compound: Cc1cccc(CS(=O)(=O)c2ncc(Cl)c(C(=O)Nc3ccc(F)cc3)n2)c1
Qualifying Sign: >
IC50 [µM]: 80

Compound: c1cc2c(cc1C1=NNC(=NC3CC3)SC1)OCCO2
Qualifying Sign: =
IC50 [µM]: 1.39

Compound: Cc1nc(SCC(=O)Nc2nc3ccccc3s2)c(C#N)c(C)c1C
Qualifying Sign: =
IC50 [µM]: 0.232

Compound: CC(=O)c1sc2c(c1OC(=O)c1ccc(Cl)cc1Cl)c(=O)n(-c1ccccc1)c(=S)n2-c1ccccc1
Qualifying Sign: >
IC50 [µM]: 100

Compound: CCCC(=O)NC(c1ccc(OC)cc1)c1ccc2cccnc2c1O (centres undefined)
Qualifying Sign: >
IC50 [µM]: 100

Compound: CCc1ccc(/C=C2\SC(=S)N(CCCC(=O)NC3=NCCS3)C2=O)cc1
Qualifying Sign: >
IC50 [µM]: 100

Compound: Cc1ccc(C(=O)Nc2cnc3ccccc3c2)cc1
Qualifying Sign: =
IC50 [µM]: 3.52

Compound: O=C(N/N=C\c1c(O)ccc2ccccc12)c1ccc(Cn2cccn2)o1
Qualifying Sign: >
IC50 [µM]: 100

Compound: COc1ccccc1C(=O)Nc1nc2ccccc2[nH]1
Qualifying Sign: =
IC50 [µM]: 0.226

Compound: COC1=CC(=O)c2c(ccc3ncnc(N)c23)C1=O
Qualifying Sign: =
IC50 [µM]: 0.875

Compound: Cc1ccc(-c2cc3c(nn2)-c2ccccc2C3=O)cc1
Qualifying Sign: =
IC50 [µM]: 0.27

Compound: Cc1ccc(C(=O)Nc2cc3ccccc3oc2=O)cc1
Qualifying Sign: =
IC50 [µM]: 0.409

Compound: O=C(N/N=C/c1c(O)ccc2ccccc12)c1ccc(CO)nc1
Qualifying Sign: =
IC50 [µM]: 31

Compound: COc1cccc2c1C(=O)c1c(O)c3c(c(O)c1C2=O)CC(O)(C(C)=NNC(=O)c1ccc(Cl)c(Cl)c1)CC3OC1CC(N)C(O)C(C)O1 (centres undefined)
Qualifying Sign: =
IC50 [µM]: 0.717

Compound: COc1cc(OC)c2cc(C(=O)N/N=C/c3ccccc3O)[nH]c2c1
Qualifying Sign: =
IC50 [µM]: 24.8

Compound: COc1ccc(CCN2C(=O)C=CC2=O)cc1OC
Qualifying Sign: =
IC50 [µM]: 6.39

Compound: O=c1c(Cl)c(N2CCCCC2)cnn1-c1nc2ccccc2[nH]1
Qualifying Sign: =
IC50 [µM]: 0.81

Compound: CC1CCN(c2ccc(-c3cccc(NC(=O)C(F)(F)F)c3)nn2)CC1
Qualifying Sign: =
IC50 [µM]: 0.869

Compound: NC(C(=O)O)C1ON=C(Cl)C1O (centres undefined)
Qualifying Sign: >
IC50 [µM]: 100

Compound: O=C(Nc1nc2cc3c(cc2s1)OCCO3)C1=COCCO1
Qualifying Sign: =
IC50 [µM]: 0.575

Compound: O=C(NCCc1ccccc1)c1ccc2c(c1)OCCO2
Qualifying Sign: =
IC50 [µM]: 1.36
